biological target: Cytochrome P450 2C9 (Homo sapiens) (UniProt P11712); assay: Cytochrome P450 Family 2 Subfamily C Member 9 (CYP2C9) small molecule antagonists: luciferase reporter qHTS assay (AID 1671198); details: P450-Glo CYP2C9 enzyme assay, luciferin luminescence; series mostly up to 115 µM; further: nearly all actives have a fitted effect of over 50% in size
Sequence (P11712 whole entry, looked up): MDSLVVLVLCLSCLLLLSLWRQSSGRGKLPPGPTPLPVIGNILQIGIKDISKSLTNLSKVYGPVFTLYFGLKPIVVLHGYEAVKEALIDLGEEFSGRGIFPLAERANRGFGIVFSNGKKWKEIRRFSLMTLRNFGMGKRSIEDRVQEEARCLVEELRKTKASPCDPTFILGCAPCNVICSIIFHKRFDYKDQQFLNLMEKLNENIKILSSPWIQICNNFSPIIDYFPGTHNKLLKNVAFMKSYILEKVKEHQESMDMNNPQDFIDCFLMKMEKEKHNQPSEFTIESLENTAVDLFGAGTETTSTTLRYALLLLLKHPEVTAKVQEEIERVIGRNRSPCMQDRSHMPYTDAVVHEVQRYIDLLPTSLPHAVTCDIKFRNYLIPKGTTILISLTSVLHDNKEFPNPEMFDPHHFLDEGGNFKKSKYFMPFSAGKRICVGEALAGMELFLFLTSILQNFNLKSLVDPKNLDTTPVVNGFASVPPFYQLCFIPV
Records with an inconclusive call do not appear. Calls of active or inactive are those of the source. The call rests on the fitted dose curve; in most records, active means well fitted inhibition curve with a large enough effect in the repeat runs; inconclusive means weak or mixed curves; inactive means no such curve, though single readings can be large or run the other way.
API: response.call in active, inactive

Some solved cases for reference:
O=C(O)CCCCCCCCCCCBr = inactive
C[C@@H](O[C@H]1OCCN(Cc2n[nH]c(=O)[nH]2)[C@H]1c1ccc(F)cc1)c1cc(C(F)(F)F)cc(C(F)(F)F)c1 = active
O=C(OCC(O)CO)c1ccccc1Nc1ccnc2cc(Cl)ccc12 (stereo not given) = active
O=C(Cn1ccnc1[N+](=O)[O-])NCCO = inactive
O=C1c2ccccc2C(=O)c2c(O)c(O)cc(O)c21 = active

Hi, sorry to bother you, what did the test record for "CCCCCCCCCCCCCCN(CCO)CCO" ?
active

Hi, sorry to bother you, what did the test record for "C=C(C)C(=O)OCCCCCCCCCCCCC" ?
inactive

Hi, sorry to bother you, what did the test record for "CC[C@]1(O)C[C@H]2CN(CCc3c([nH]c4ccccc34)[C@@](C(=O)OC)(c3cc4c(cc3OC)N(C=O)[C@H]3[C@@](O)(C(=O)OC)[C@H](OC(C)=O)[C@]5(CC)C=CCN6CC[C@]43[C@@H]65)C2)C1" ?
inactive

Hi, sorry to bother you, what did the test record for "O=C1c2ccccc2C(=O)N1CCc1noc(-c2ccc(CN3CCCCCC3)s2)n1" ?
active

Hi, sorry to bother you, what did the test record for "CC=C(Cl)Cl" ?
inactive

---

experiment: qHTS assay to identify small molecule agonists of the estrogen related receptor (ERR) signaling pathway from Tox21 library (AID 1224849); conditions: ERR reporter cell line, ONE-Glo luciferase, 18 h; at 92.4 µM (top of the series) unless noted; further: nearly all actives have a fitted effect of over 15% in size
Activity calls are given as the source filed them. Calls follow the shape of the full dose curve.
API: response.call in Y = active, N = inactive

Some solved cases for reference:
CC(C)Nc1cccnc1N1CCN(C(=O)c2cc3cc(NS(C)(=O)=O)ccc3[nH]2)CC1 = N
Oc1cc2c(cc1O)[C@H]1c3ccc(O)c(O)c3OC[C@@]1(O)C2 = N

Hi, sorry to bother you, what did the test record for "Cc1[nH]cnc1CN1CCc2c(c3ccccc3n2C)C1=O" ?
N

Hi, sorry to bother you, what did the test record for "C[C@@H]1CN(CCCn2c3ccccc3c3ccccc32)C[C@H](C)N1" ?
N

Hi, sorry to bother you, what did the test record for "Cc1cc(O)ccc1O" ?
Y

Hi, sorry to bother you, what did the test record for "CC(C)c1nc(CN(C)C(=O)N[C@H](C(=O)N[C@@H](Cc2ccccc2)C[C@H](O)[C@H](Cc2ccccc2)NC(=O)OCc2cncs2)C(C)C)cs1" ?
N

Hi, sorry to bother you, what did the test record for "CC(C)C=O" ?
N

Hi, sorry to bother you, what did the test record for "C=C1C[C@@]23CC[C@H]4[C@@](C)(CCC[C@@]4(C)C(=O)O[C@@H]4O[C@H](CO)[C@@H](O)[C@H](O)[C@H]4O)[C@@H]2CC[C@]1(O[C@@H]1O[C@H](CO)[C@@H](O)[C@H](O[C@@H]2O[C@H](CO)[C@@H](O)[C@H](O)[C@H]2O)[C@H]1O[C@@H]1O[C@H](CO)[C@@H](O)[C@H](O)[C@H]1O)C3" ?
N

---

target: Nuclear receptor subfamily 1 group I member 2 (Homo sapiens) (UniProt O75469); test: Human pregnane X receptor (PXR) small molecule agonists, qHTS assay (AID 1346982); conditions: PXR-Luc HepG2, CYP3A4 luciferase reporter, 24 h; series mostly up to 92.4 µM; further: nearly all actives have a fitted effect of over 35% in size
Sequence (O75469 whole entry, looked up): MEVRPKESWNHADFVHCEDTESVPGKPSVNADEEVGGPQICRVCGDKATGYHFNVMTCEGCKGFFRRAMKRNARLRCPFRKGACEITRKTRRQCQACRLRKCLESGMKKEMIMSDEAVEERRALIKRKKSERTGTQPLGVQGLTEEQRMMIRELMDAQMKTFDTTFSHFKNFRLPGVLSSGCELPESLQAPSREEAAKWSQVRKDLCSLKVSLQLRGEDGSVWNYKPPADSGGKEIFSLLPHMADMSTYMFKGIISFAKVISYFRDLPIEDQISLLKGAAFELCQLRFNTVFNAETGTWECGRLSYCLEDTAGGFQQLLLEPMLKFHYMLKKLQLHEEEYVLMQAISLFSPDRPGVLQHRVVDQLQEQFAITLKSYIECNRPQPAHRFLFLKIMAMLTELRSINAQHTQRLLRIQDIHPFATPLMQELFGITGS
Records with an inconclusive call do not appear. Active and inactive are the calls of the source. The call rests on the fitted dose curve; in most records, active means well fitted activation curve with a large enough effect in the repeat runs; inconclusive means weak or mixed curves; inactive means no such curve, though single readings can be large or run the other way.
API: response.call in active, inactive

Hi, sorry to bother you, what did the test record for "CC/C=C1/OC(=O)c2ccccc21" ?
inactive

Hi, sorry to bother you, what did the test record for "C=C(C)[C@@H]1CCC2=CCC[C@@H](C)[C@]2(C)C1" ?
active

Hi, sorry to bother you, what did the test record for CCC1CO1 (stereo not given) ?
inactive

---

assay: qHTS assay to identify small molecule antagonists of the peroxisome proliferator-activated receptor gamma (PPARg) signaling pathway - cell viability counter screen (AID 743194); conditions: PPARg-bla HEK293H viability, CellTiter-Glo luminescence, 17 h, co-treated with 50 nM rosiglitazone; series mostly up to 62.6 µM; further: nearly all actives have a fitted effect of over 55% in size
Inconclusive results are not listed. Active and inactive are the calls of the source. The call rests on the fitted dose curve; in most records, active means well fitted cell-killing curve with a large enough effect in the repeat runs; inconclusive means weak or mixed curves, or effect the other way; inactive means no such curve, though single readings can be large or run the other way.
API: response.call in 1.0 = active, 0.0 = inactive

Hi, sorry to bother you, what did the test record for "COC(=O)c1nc(Cl)c(Cl)nc1N" ?
1.0

Hi, sorry to bother you, what did the test record for "CC(=O)Oc1ccc([N+](=O)[O-])cc1CCl" ?
0.0

Hi, sorry to bother you, what did the test record for "COC(=O)CCS" ?
0.0

Hi, sorry to bother you, what did the test record for "OC1(c2ccccc2)CCNCC1" ?
0.0

Hi, sorry to bother you, what did the test record for CCCCC(CC)CN (centres undefined) ?
0.0

---

assay: Caspase-3/7 induction in HepG2 cells by small molecules, qHTS assay (AID 1346978); conditions: HepG2 caspase-3/7 activation, Caspase-Glo luminescence, 17 h; series mostly up to 92.4 µM; further: nearly all actives have a fitted effect of over 15% in size
Inconclusive results are not listed. Activity calls are given as the source filed them. Calls come from the whole dose curve; as a rule, active = well fitted activation curve with a large enough effect in the repeat runs; inconclusive = weak or mixed curves; inactive = flat fitted curve, though single readings scatter.
API: response.call in active, inactive

Some solved cases for reference:
CN1CCCC(n2nc(Cc3ccc(Cl)cc3)c3ccccc3c2=O)CC1 (stereo unspecified) = inactive
Nc1nc2ccc([N+](=O)[O-])cc2s1 = inactive

# input for lookup
Hi, sorry to bother you, what did the test record for "Cc1c(C)c2c(c(C)c1OC(=O)CCC(=O)OCCO)CC[C@@](C)(CCC[C@H](C)CCC[C@H](C)CCCC(C)C)O2" ?
inactive

---

test: qHTS assay to identify small molecule antagonists of the estrogen related receptor (ERR) signaling pathway from Tox21 library - cell viability counter screen (AID 1224834); conditions: ERR reporter cells viability, CellTiter-Fluor, 17.5 h; series mostly up to 92.4 µM; further: nearly all actives have a fitted effect of over 30% in size
Results filed as inconclusive are left out. Calls of active or inactive are those of the source. Calls come from the whole dose curve; as a rule, active = well fitted cell-killing curve with a large enough effect in the repeat runs; inconclusive = weak or mixed curves; inactive = flat fitted curve, though single readings scatter.
API: response.call in active, inactive

Some solved cases for reference:
Brc1cc(Br)c(Oc2cc(Br)c(Br)cc2Br)cc1Br = inactive
CO/N=C(/C(=O)N[C@@H]1C(=O)N2C(C(=O)O)=C(COC(N)=O)CS[C@H]12)c1ccco1 = inactive
CCOC(=O)c1ccc(C#Cc2ccc3c(c2)C(C)(C)CCS3)nc1 = inactive

Hi, sorry to bother you, what did the test record for "Oc1cccc(Nc2ccccc2)c1" ?
inactive

Hi, sorry to bother you, what did the test record for "CCn1cc(C(=O)O)c(=O)c2cc(F)c(N3CCNCC3)cc21" ?
inactive

---

experiment: qHTS assay to identify small molecule antagonists of the estrogen receptor beta (ER-beta) signaling pathway - cell viability counter screen (AID 1259382); conditions: ER-beta-UAS-bla HEK293T viability, CellTiter-Glo luminescence, 16 h; series mostly up to 92.4 µM;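 further: HEK293T cells carrying ER-beta-UAS-bla reporter stimulated with estradiol; nearly all actives have a fitted effect of over 55% in size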
Inconclusive results are not listed. Calls of active or inactive are those of the source. Calls follow the shape of the dose curve; as a rule, active = well fitted cell-killing curve with a large enough effect in the repeat runs; inconclusive = weak or mixed curves; inactive = flat fitted curve, though single readings scatter.
READOUT TYPE: outcome

C[C@@]12CCC[C@H]1[C@@H]1CC[C@H]3C[C@@H](O)CC[C@]3(C)[C@H]1CC2 = inactive
C[C@H]1c2cccc(O)c2C(O)=C2C(=O)[C@]3(O)C(O)=C(C(N)=O)C(=O)[C@@H](N(C)C)[C@@H]3[C@@H](O)[C@@H]21 = inactive
C=C(C)CCCC(C)CCO (stereo unspecified) = inactive
Oc1cccc(O)c1O = inactive
Nc1cccc2c1CN(C1CCC(=O)NC1=O)C2=O (stereo unspecified) = inactive

Which outcome value belongs to "O[C@@H]1CO[C@H]2[C@@H]1OC[C@@H]2O" ?
inactive

Which outcome value belongs to "COc1ccccc1Oc1c(NS(=O)(=O)c2ccc(C(C)(C)C)cc2)nc(-c2ncccn2)nc1OCCO" ?
inactive

Which outcome value belongs to "CCOC(=O)c1ccc(OCCN2C[C@H](O)[C@@H](O)[C@H](O)[C@H]2CO)cc1" ?
inactive

Which outcome value belongs to "O=C1c2ccccc2C(=O)C1(O)O" ?
inactive

Which outcome value belongs to "Brc1cc2ccccc2c2ccccc12" ?
inactive

Which outcome value belongs to "C[C@@H](O)[C@H]1C(=O)N2C(C(=O)O)=C([C@H]3CCCO3)S[C@H]12" ?
inactive

---

assay: qHTS assay to identify small molecule antagonists of the estrogen related receptor (ERR) signaling pathway from Tox21 library - cell viability counter screen (AID 1224834); settings: ERR reporter cells viability, CellTiter-Fluor, 17.5 h; series mostly up to 92.4 µM; further: nearly all actives have a fitted effect of over 30% in size; further: potency means the concentration at half of the fitted maximal effect
Inconclusive results are not listed. The source made the active and inactive calls. The call rests on the fitted dose curve; in most records, active means well fitted cell-killing curve with a large enough effect in the repeat runs; inconclusive means weak or mixed curves; inactive means flat fitted curve, though single readings scatter.
READOUT TYPE: Potency

Take a look at these entries with their results.
CCCCCCCCCCCCCCN(CCO)CCO = 61.1 µM (active)
CC=C(Cl)Cl = inactive
CC(C)=CCC/C(C)=C/CC/C(C)=C/C(=O)OCC(=O)[C@@]1(O)CC[C@H]2[C@@H]3CCC4=CC(=O)C=C[C@]4(C)[C@H]3[C@@H](O)C[C@@]21C = 29.8 µM (active)
CNC(=O)c1cnn(-c2nc(N)c3ncn([C@@H]4O[C@H](CO)[C@@H](O)[C@H]4O)c3n2)c1 = inactive

Which Potency value belongs to "Cc1ccccc1S" ?
inactive

Which Potency value belongs to "Oc1c(I)cc(I)c2cccnc12" ?
29.8 µM (active)

Which Potency value belongs to O=C1C(=O)c2ccccc2C(O)=C1C1CCC(c2ccc(Cl)cc2)CC1 (stereo unspecified) ?
inactive

Which Potency value belongs to "Cc1cc(=O)c2c(O)c3c(O)cc(=O)c4c3c3c(cc(O)c1c23)C(C)(C)C=4O" ?
1.46 µM (active)

Which Potency value belongs to CCCCC(CC)COP(=O)(O)O (stereo unspecified) ?
inactive

Which Potency value belongs to "CC(=O)OCCN(CCOC(C)=O)c1ccc(N=Nc2ccc([N+](=O)[O-])cc2C#N)cc1" ?
48.6 µM (active)

Which Potency value belongs to "COc1cc(Nc2c(C#N)cnc3cc(OCCCN4CCN(C)CC4)c(OC)cc23)c(Cl)cc1Cl" ?
9.44 µM (active)

Recorded values, source PubChem BioAssay (Tox21).
